Taken from the supplement of paper PMC10065799.

- TARGET_DESC: Fyn (UniProt P06241)
- Sequence (P06241 whole entry, looked up): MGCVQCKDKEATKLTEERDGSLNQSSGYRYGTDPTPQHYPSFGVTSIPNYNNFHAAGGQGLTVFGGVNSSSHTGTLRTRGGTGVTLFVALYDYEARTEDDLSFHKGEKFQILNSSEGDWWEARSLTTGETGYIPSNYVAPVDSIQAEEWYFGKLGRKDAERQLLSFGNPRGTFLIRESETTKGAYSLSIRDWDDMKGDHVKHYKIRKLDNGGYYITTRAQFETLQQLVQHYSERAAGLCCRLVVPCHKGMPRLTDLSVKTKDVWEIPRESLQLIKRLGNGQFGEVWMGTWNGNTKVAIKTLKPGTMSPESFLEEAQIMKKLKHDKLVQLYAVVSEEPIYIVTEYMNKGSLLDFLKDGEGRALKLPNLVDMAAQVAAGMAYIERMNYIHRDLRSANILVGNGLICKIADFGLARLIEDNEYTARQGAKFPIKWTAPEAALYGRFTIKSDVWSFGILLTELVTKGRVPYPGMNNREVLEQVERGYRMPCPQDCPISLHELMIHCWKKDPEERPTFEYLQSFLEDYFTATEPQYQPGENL
- ASSAY_EXPLANATION: phosphorylation enrichment, bacterial display (enrichment ratio); higher = better substrate or ligand; peptides without Tyr show the background;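 also: 11-residue human phosphosite peptides and single-mutation variants displayed on the E. coli surface, counted by deep sequencing, each peptide's frequency after selection divided by its frequency in the unselected input library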;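 also: frequency after pTyr selection over input frequency; kinase dosed for 20-30% of maximal phosphorylation in three min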
Param threshold (0.5) applies to phosphorylation enrichment; output Y when value >= threshold, N when value < threshold.

// known answers, use as guide
NVVNEYSSELE [FGB_Y172]	Y
TEAEPYYRSLR [NPHS1_Y1138]	N
MIRSAYALGGL [CPS1_Y590]	N
DVLEFYNSKKT [PAK1_Y131]	Y
LEQGEYALRSH [HADHB_Y244_D242G]	Y

Problem: Hi, just wondering whether NDLMEYAKQHG [ASS1_Y163] shows phosphorylation enrichment of 0.5 or higher.
Result: N

Problem: Is reported phosphorylation enrichment greater than or equal to 0.5 here: SSENPYATIKD [MEGF10_Y1030]
Result: Y

Problem: Check if phosphorylation enrichment >= 0.5 (inclusive). Item: GTSLIYWTLFT [G6PC3_Y214]
Result: Y

Problem: Given NAGAFYVLSTL [FLVCR2_Y325_A326V] , state whether its phosphorylation enrichment is at least 0.5.
Result: N

Problem: # bool: phosphorylation enrichment of FFRDGHMPRQF [GSS_Y270_Y270H_YF] >= 0.5
Result: N

====

- System: Fer (mouse)
- ASSAY_EXPLANATION: phosphorylation enrichment, bacterial display (enrichment ratio); higher = better substrate or ligand; peptides without Tyr show the background
Record form. Attribute: phosphorylation enrichment. Fill in for each entry.
One number for each entry.

The examples below pair each entry with its known result.
MCITRYERESQ [PRNP_Y218_Q217R]	0.488
QSSEGYDLGDR [KIAA1210_Y564_G565D]	0.607
QMVGMYASSFM [AVPR2_Y124_YF]	0.904
TVQVAYFTVMM [SPATA17_Y83_M86V_YF]	0.842

For each of the sequences below, state phosphorylation enrichment.
1. GRSTYYWPRPR [GAGE12J_Y10]
2. MGCVNYGAYIN [GLB1_Y485_R482C]
3. FFRKVYHLASV [RBL1_Y796_YF]

Result:
0.504
0.571
0.374

For each listed entry, give its phosphorylation enrichment.
1. SKGYAYVHFDS [PABPC5_Y149]
2. VSFGEYRFRSV [CFTR_Y515_D513G_YF]
3. LARDMYDKEFF [MET_Y1230_YF]

Result:
0.584
0.402
0.464

Below are some sequences; for each one, tell me its phosphorylation enrichment.
1. IRTIDYRFTVS [IDS_Y497_W502S_YF]
2. PDSVDYRKKGY [CTSK_Y121]
3. GLNKGYRMVVN [HINT1_Y94]
4. KHMADYPDFKF [SOX11_Y113_YF]

Result:
0.596
0.657
0.318
0.434

Quick request: phosphorylation enrichment for each listed item, please.
1. DVLEFYNSKKT [PAK1_Y131]
2. WFQTKYEELQV [KRT6B_Y360_I365V_YF]
3. VRTGIYHGGEP [PIK3CA_Y361]
4. FMKEPYIQSRF [HIPK4_Y175_V171M_YF]
5. GRLFAYPDTHC [CAT_Y358_R363C]

Result:
1.13
0.459
0.457
0.275
0.479
